System: S. aureus RN4220
experiment notes: growth inhibition call (relative growth <= 0.2)
condition details: 50 µM
Out of some 39,000 compounds screened, about 500 (1.3%) were called active. This is one part of a sample in which actives are shown more often than they occur.
measured parameter: growth inhibition call

Record excerpt, results attached:
CCCC1CC(C(=O)NC(C(C)O)C2OC(SC)C(O)C(O)C2O)N(C)C1.Cl (stereo not given): active
C[C@H](CO)N1C[C@H](C)[C@H](CN(C)Cc2ccccc2)Oc2ccc(NC(=O)Nc3ccc(C(F)(F)F)cc3)cc2C1=O: active
O=C(CCCN1CCC(O)(c2ccc(Cl)cc2)CC1)c1ccc(F)cc1: inactive
Cc1noc(C)c1NC(=O)N(C)C[C@@H]1OCCCC[C@@H](C)Oc2ccc(NC(=O)CCC(F)(F)F)cc2C(=O)N([C@H](C)CO)C[C@@H]1C: inactive
CO[C@H]1O[C@H](CO)[C@@H](OC(=O)Nc2ccc(Br)cc2)[C@@H]2OC(=O)[C@H](Cc3cccc(Br)c3)C/C=C/C[C@@H](Cc3cccc(Br)c3)C(=O)O[C@@H]12: inactive
Cc1noc(C)c1NC(=O)Nc1ccc2c(c1)C(=O)N([C@@H](C)CO)C[C@@H](C)[C@@H](CN(C)C(=O)Nc1ccccc1)OCCCC[C@@H](C)O2: inactive
Cc1ccccc1-c1cc(N2CCN(C)CC2)ncc1N(C)C(=O)C(C)(C)c1cc(C(F)(F)F)cc(C(F)(F)F)c1: active
C[C@@H]1CN([C@H](C)CO)C(=O)c2cc(C#CCN(C)C)cnc2O[C@@H]1CN(C)S(=O)(=O)c1cn(C)cn1: inactive

May I ask what growth inhibition call has been recorded for CN(C)C1C(O)=C(C(N)=O)C(=O)C2(O)C(O)=C3C(=O)c4c(O)ccc(Cl)c4C(C)(O)C3CC12.Cl (stereo not given) ?
inactive

Which growth inhibition call reading was recorded for the compound `C=CC[C@@H](CC(=O)NCCO)C(=O)NCCOC(=O)[C@H](CC=C)NC(=O)OCC1c2ccccc2-c2ccccc21` ?
inactive

Consider the compound `C[C@@H]1CCCCO[C@@H](CN(C)Cc2ccc(Cl)c(Cl)c2)[C@@H](C)CN([C@H](C)CO)C(=O)c2cc(NC(=O)C3CCCCC3)ccc2O1` and give its measured growth inhibition call.
inactive

What growth inhibition call value was documented for this compound, `COc1cccc(C#Cc2cnc3c(c2)C(=O)N([C@@H](C)CO)C[C@H](C)[C@@H](CN(C)C(=O)C2CCOCC2)O3)c1` ?
inactive

Return reported growth inhibition call; argument: `CCCCCCCCC=CCCCCCCCC(=O)[O-].[NH3+]CCO`
inactive

For `C[C@H](CO)N1C[C@H](C)[C@@H](CN(C)S(=O)(=O)c2cn(C)cn2)OCCCC[C@H](C)Oc2ccc(NS(=O)(=O)c3cn(C)cn3)cc2C1=O` , what is its reported growth inhibition call?
inactive

Please give the measured growth inhibition call for this compound: `CC(C)[C@@H](O)C[C@@H](C)O[C@@H]1O[C@H](CO[C@@H]2OC[C@](O)(CO)[C@H]2O)[C@@H](O)[C@H](O)[C@H]1O`
inactive

Entry `C[C@H]1CCCCO[C@H](CN(C)S(=O)(=O)c2ccc(F)cc2)[C@@H](C)CN([C@@H](C)CO)C(=O)c2cc(NS(C)(=O)=O)ccc2O1` has what growth inhibition call?
inactive

###

Test system: S. aureus RN4220
experiment notes: growth inhibition call (relative growth <= 0.2)
condition details: 50 µM
Out of some 39,000 compounds screened, about 500 (1.3%) were called active. The full list was thinned out, with actives kept by preference.
Answer with one of the outcomes active, inactive

Identify the outcome logged in this assay for the compound shown: `CCCNC(=O)c1cc2c(c(-c3cccc(-c4ccc(F)cc4)c3)n1)[C@H](CCO)N([S@@](=O)C(C)(C)C)C2`
inactive

What classification did `O=C(CCCCC(=O)N/N=C/c1cc(I)cc(I)c1O)NO` end up with in this test?
active

For `O=C(O)CCC(=O)N1CC(=O)Nc2ccccc21` , which call appears in the assay record?
inactive

###

Test system: S. aureus RN4220
experiment notes: growth inhibition call (relative growth <= 0.2)
condition details: 50 µM
Among all 39,000 compounds or so, about 500 (1.3%) were called active. The sample as a whole holds a higher share of actives than the screen did.
Choose the fitting class; nothing outside Yes = active, No = inactive is accepted.

Use these answered entries as a reference point.
CO/N=C(\C(=O)N[C@@H]1C(=O)N2C(C(=O)O)=C(CSC(=O)c3ccco3)CS[C@H]12)c1csc(N)n1: Yes
N=C(N=C(N)N)Nc1cc(-c2cccs2)n[nH]1: No
O=C(C[C@H]1CC[C@@H]2[C@H](COC[C@H](O)CN2C(=O)Nc2ccc(Cl)c(Cl)c2)O1)NCc1ccncc1: No
O=C(C[C@@H]1CC[C@H]2[C@@H](COC[C@@H](O)CN2C(=O)Nc2ccc(Cl)c(Cl)c2)O1)NCc1ccncc1: Yes
O=C(C[C@H]1CC[C@H]2[C@@H](COC[C@H](O)CN2C(=O)Nc2ccc(Cl)c(Cl)c2)O1)NCc1ccc(Cl)c(Cl)c1: No

Called result for `O=C(C[C@@H]1CC[C@@H]2[C@H](COC[C@@H](O)CN2C(=O)Nc2ccc(Cl)c(Cl)c2)O1)NCc1ccncc1`
Yes

Called result for `C[C@@H]1CN([C@H](C)CO)C(=O)Cc2cc(NS(=O)(=O)c3cn(C)cn3)ccc2O[C@H]1CN(C)CC1CCCCC1`
No

Tell me the recorded outcome of this test for `O=C(N[C@H]1CC[C@@H](CC(=O)N2CCOCC2)O[C@H]1CO)c1ccc2c(c1)OCO2` .
No

Per the assay record, what outcome was assigned to `O=C(C[C@H]1CC[C@H]2[C@@H](COC[C@H](O)CN2C(=O)Nc2ccc(Cl)c(Cl)c2)O1)NCc1ccncc1` ?
No

###

Tested on: S. aureus RN4220
experiment notes: growth inhibition call (relative growth <= 0.2)
condition details: 50 µM
The campaign covered roughly 39,000 compounds. About 500 (1.3%) were called active. Only a selection was taken, and actives are over-represented in it overall.
measured parameter: growth inhibition call

CCCCc1ccc(CC(=O)O)cc1: inactive
Cc1onc(-c2ccccc2)c1CN: inactive
CC(C)NC(=O)N(C)C[C@@H]1Oc2ccc(NC(=O)Nc3ccc4c(c3)OCO4)cc2CC(=O)N([C@@H](C)CO)C[C@H]1C: inactive

###

System: S. aureus RN4220
experiment notes: growth inhibition call (relative growth <= 0.2)
condition details: 50 µM
In all, about 39,000 compounds went through this assay and about 500 (1.3%) were called active. For the sample, actives were picked, then their nearest neighbours and some compounds at random.
Please state which outcome applies, choosing from active, inactive

Worked examples, 5 compounds total:
C[C@@H]1CCCCO[C@@H](CN(C)C(=O)C2CCCCC2)[C@@H](C)CN([C@H](C)CO)C(=O)c2cc(NC(=O)C3CCCCC3)ccc2O1: inactive
C[C@H](CO)N1C[C@H](C)[C@H](CN(C)S(=O)(=O)c2ccccc2)Oc2ccc(NS(C)(=O)=O)cc2CC1=O: inactive
CC(C)=CCC[C@]1(C)[C@@H](CC=C(C)C)C[C@]2(CC=C(C)C)C(=O)C(CC=C(C)C)=C(O)[C@@]1(C(=O)C(C)C)C2=O: active
COc1cc(-c2cc(=O)c3c(=O)cc(-c4ccc(O)c(OC)c4)n(CCc4ccccc4)c3s2)ccc1O: inactive
C[C@H](CO)N1C[C@H](C)[C@H](CN(C)Cc2ccc(Cl)c(Cl)c2)Oc2ccc(NC(=O)Nc3ccc(F)cc3)cc2CC1=O: inactive

Field: outcome | Entry: CC(C)[N+]1(C)C2CCC1CC(OC(=O)C(CO)c1ccccc1)C2.[Br-] (configuration not stated)
inactive

// param item: `COc1ccc(NC(=O)Nc2ccc3c(c2)C(=O)N([C@@H](C)CO)C[C@H](C)[C@H](CN(C)C(=O)c2ccccc2)OCCCC[C@@H](C)O3)cc1` ; yields the recorded call
inactive

###

System: S. aureus RN4220
experiment notes: growth inhibition call (relative growth <= 0.2)
condition details: 50 µM
In all, about 39,000 compounds went through this assay and about 500 (1.3%) were called active. The entries come from a sample that favours actives as a whole.
Answer with one of the outcomes given here: active, inactive

C[C@@H]1CN([C@H](C)CO)C(=O)c2c(c3ccccc3n2C)-c2ccccc2CO[C@H]1CN(C)S(C)(=O)=O: inactive
CN(C)c1cc(NC(=O)CNC(C)(C)C)c(O)c2c1CC1CC3C(N(C)C)C(O)=C(C(N)=O)C(=O)C3(O)C(O)=C1C2=O (stereo not given): inactive
Cc1ccc(Sc2c(-c3ccccc3)nc3sccn23)cc1: inactive
Cc1cc(O)cc(=O)[nH]1: inactive
C[C@H](CO)N1C[C@H](C)[C@@H](CN(C)Cc2ccc(C(=O)O)cc2)Oc2ccc(NC(=O)Cn3cnnn3)cc2C1=O: inactive
C[C@@H]1CCCCO[C@@H](CN(C)S(=O)(=O)c2cccs2)[C@H](C)CN([C@H](C)CO)C(=O)c2cc(NC(=O)Nc3ccc(F)cc3)ccc2O1: inactive

Consider the additional compound presented here.
Write down the call the test reported for this compound. Item: `Nc1nnc(-c2ccno2)o1`
inactive
